# system_name: T1, soluble monomeric human TREM2 (human, UniProt Q9NZC2 19-174, limits assumed)
# T1 construct: Not the same as shed sTREM2; also called soluble monomeric TREM2
# T1 sequence: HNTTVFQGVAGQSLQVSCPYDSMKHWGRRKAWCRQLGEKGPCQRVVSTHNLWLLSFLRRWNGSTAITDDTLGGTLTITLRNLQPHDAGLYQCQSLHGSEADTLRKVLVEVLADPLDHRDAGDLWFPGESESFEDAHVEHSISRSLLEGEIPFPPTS
# protocol_details: SPR (Biacore T200), 37 C; IgG on anti-CH1 chip, soluble monomeric TREM2
result_type: kon (M⁻¹ s⁻¹)
Field: numeric (M⁻¹ s⁻¹). Do not append units.

# binder, measurement_unit, kon
rows = [
    ("Para.09 IgG with the 3.27H7 light chain (antibody, V domains shown, also called rat Para.09; Para.09-L27H7) VH: EVQLVETGGSLVQPGKSLRLTCATSGFPFSNVWLHWVRQSPEKHPEWVAHIKAKSDNYATYYAESVKGRFTISRDDSKSSVFLQMNSLKEEDTAIYYCTDILEYWGQGTLVTVSS VL: DVVLTQAPLSVSVTPGESASISCRSSRSLLTSKGITSLYWYLQKPGMSPHLLIYRMSNLASGIPDRFSGSGSETDFTLKISEVEPEDVGVYYCAQFLVYPYTFGAGTKLELK", "M⁻¹ s⁻¹", "2e+06"),
    ("hPara.09.v2 hIgG1 N297G (antibody, V domains shown, also called hPara.09.H5.hIgG1.N297G) VH: EVQLVESGGGLVQPGGSLKLSCATSGFPFSNVWLHWVRQASGKGPEWVAHIKAKSDNYATYYAESVKGRFTISRDDSKNTVYLQMNSLKTEDTAVYYCTDILEYWGQGTLVTVSS VL: DVVMTQSPLSLPVTPGEPASISCRSSRSLLTSKGITSLYWYLQKPGQSPQLLIYRMSNLASGIPDRFSGSGSGTDFTLKISRVEAEDVGVYYCAQFLVYPYTFGQGTKVEIKR", "M⁻¹ s⁻¹", "2.3e+06"),
    ("h3.10C2.v1 hIgG1 N297G (antibody, V domains shown, Human IgG1 N297G; also called h3.10C2.v1.huIgG1.N297G) VH: EVQLVESGGGLVQPGGSLKLSCATSGFPFSNVWMHWVRQASGKGLEWIAHIKAKSDNYATYYAESVKGRFTISRDDSKTTIYLQMNSLKTEDTAVYYCTGLDYWGQGTTVTVSS VL: DVVMTQSPLSLPVTPGEPASISCRSSRSLLTSKGITSLYWYLQKPGQSPQLLIYRMSNLASGVPDRFSGSGSGTDFTLKISRVEAEDVGVYYCAQFLVYPYTFGQGTKVEIK", "M⁻¹ s⁻¹", 840000),
]

Next item in the queue.
Challenge: Which kon value is on record for 3.10C2 IgG (rat variable regions; captured by anti-CH1 or anti-human Fab chips) (antibody, V domains shown, also called parental 3.10C2 clone; 3.10C2 control) VH: EVQLVETGGSLVQPGKSLKLTCATSGFPFSNVWMHWVRQSPEKQLEWIAHIKAKSDNYATYYAESVKGRFTISRDDSKTSIYLQMNSLKEDDTAIYYCTGLDYWGQGVMVTVSS VL: DTVLTQAPLSLSVTPGESASISCRSSKSLLGVRDITSLYWYLQKPGKSPQLLIYRMSNLASGVPDRFSGSGSETDFTLKISEVETEDVGVYYCAQFLRYPYTFGPGTKLELK ?
Response given: 780000

Data origin, for the record: patent US20220389097A1
